Test Name: soluble on expression in E. coli; label from the status in PepcDB or PDB records
Measurement Name: soluble on expression in E. coli

MGSDKIHHHHHHMRLKITHRTEYRYDAPVQYLLQRLRLLPVSGQTQTVLSWALKVEGAREEVRFTDHYGNDTRLLSVEGDHDFITVEASGEVVTRDTSGVCGSHQGFAPLWLFAQETPLTAIGGGIRKLAEAVGTGTDIERLHRLMAMIGERVAYTPGSTKATTPAEEALALKTGVCQDHSHIFAAAARAMGFPSRYVSGYLMMDAVEQAASHAWAEAHVPGLGWVAFDPANGISPDERYVKVATGRDYRDASPVSGIRQGQAEERLAVTVTVEQ; not soluble
VTSPNSTAPTPSLITAPPPSTTEDLRLALRAATLYYLDGMTQAEVATRLGVSRPTAGRLVARARAQGLVRIEVQAPAHLRDALRSDEERALEEKYGLVEAVVVADSVDAAGAIDDHNSFAGVGRAAASLLVRRIREGDTLGFTWGPETVAVAQGLPSGAATCASVVQLDGSVSAINYQTGTEYVLGRCAEQLQANTVRLPVPLYADASTVVSMRGDSVISKALEAGRTAEMMMFGTGAVSTSTTLFEGSFIDTDMLSVLTGLGAVGEVGGRFYRLDGTEVAGPLDERAMSVPLDDIRACEGSILVTGGVAKHQAALGALHGGLAKMLVCDIECARWLLDQ; not soluble

Every entry's value here was drawn from the DeepSol protein solubility set.
